- tgt: Ecdysone receptor (Aedes aegypti)
- Sequence (P49880 whole entry): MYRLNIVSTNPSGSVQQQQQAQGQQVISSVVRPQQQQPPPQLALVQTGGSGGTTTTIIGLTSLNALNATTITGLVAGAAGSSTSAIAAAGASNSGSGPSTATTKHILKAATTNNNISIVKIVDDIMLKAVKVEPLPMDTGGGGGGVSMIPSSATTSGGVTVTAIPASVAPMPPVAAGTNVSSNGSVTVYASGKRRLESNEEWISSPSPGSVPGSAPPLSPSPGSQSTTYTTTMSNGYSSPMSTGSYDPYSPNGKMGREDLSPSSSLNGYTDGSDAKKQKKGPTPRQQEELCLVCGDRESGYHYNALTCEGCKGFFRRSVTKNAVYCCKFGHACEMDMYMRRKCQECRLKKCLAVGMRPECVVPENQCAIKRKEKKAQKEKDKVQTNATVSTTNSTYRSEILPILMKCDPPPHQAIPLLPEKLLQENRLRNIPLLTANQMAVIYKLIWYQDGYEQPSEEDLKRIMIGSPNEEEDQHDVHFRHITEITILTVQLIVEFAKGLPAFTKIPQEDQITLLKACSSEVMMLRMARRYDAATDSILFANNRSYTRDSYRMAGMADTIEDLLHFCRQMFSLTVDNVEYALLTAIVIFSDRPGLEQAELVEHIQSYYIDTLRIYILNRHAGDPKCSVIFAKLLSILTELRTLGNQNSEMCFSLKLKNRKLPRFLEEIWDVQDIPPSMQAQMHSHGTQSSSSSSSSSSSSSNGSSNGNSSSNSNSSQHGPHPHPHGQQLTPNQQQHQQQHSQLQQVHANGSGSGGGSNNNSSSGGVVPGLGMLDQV
- protocol text: Effective concentration for ecdysone-dependent transactivation in mammalian cell line expressing Aedes aegypti ecdysone receptor
pEC50: −log10 of the molar value.
The label depends only on pEC50: class 1 if it is at least 6, class 0 if it is smaller.

stdin: Say whether COc1ccc(C(=O)N2c3ccc(C)cc3[C@@H](Nc3ccc(C)cc3)C[C@H]2C)cc1 shows pEC50 of 6 or more.
stdout: class 0

stdin: Check this molecule for pEC50 at or above 6: Cc1ccc(N[C@H]2C[C@@H](C)N(C(=O)c3cccc(F)c3)c3ccc(C)cc32)cc1
stdout: class 0

stdin: Test whether the molecule Cc1ccc(N[C@H]2C[C@@H](C)N(C(=O)c3ccccc3C)c3ccc(C)cc32)cc1 records pEC50 of 6 or higher.
stdout: class 0

stdin: Confirm if pEC50 reported for the molecule CCc1c(OC)cccc1C(=O)NN(C(=O)c1cc(C)cc(C)c1)C(C)(C)C is 6 or above.
stdout: class 1

stdin: Does Cc1ccc(N[C@H]2C[C@@H](C)N(C(=O)c3ccc(C)cc3)c3ccc(C)cc32)cc1 have a reported pEC50 of at least 6?
stdout: class 0

stdin: Kindly determine if pEC50 recorded for COc1ccccc1C(=O)N1c2ccc(F)cc2[C@@H](Nc2ccc(F)cc2)C[C@H]1C is above or exactly 6.
stdout: class 0

stdin: Is pEC50 at least 6? Consider Cc1ccc(N[C@H]2C[C@@H](C)N(C(=O)c3cccc(C)c3)c3ccc(C)cc32)cc1
stdout: class 0

stdin: pEC50 >= 6 for C[C@@H]1C[C@H](Nc2ccc(F)cc2)c2cc(F)ccc2N1C(=O)c1ccc(Cl)cc1 ?
stdout: class 1

stdin: Is reported pEC50 greater than or equal to 6 here: Cc1ccc(N[C@H]2C[C@@H](C)N(C(=O)c3ccc(C(F)(F)F)cc3)c3ccc(C)cc32)cc1
stdout: class 0

stdin: // inclusive: pEC50 at least 6? input: Cc1ccc(N[C@H]2C[C@@H](C)N(C(=O)c3cccc(C(F)(F)F)c3)c3ccc(C)cc32)cc1
stdout: class 0

stdin: Does the molecule Cc1ccccc1C(=O)N1c2ccc(F)cc2[C@@H](Nc2ccc(F)cc2)C[C@H]1C have recorded pEC50 that is 6 or more?
stdout: class 0

stdin: Record C[C@@H]1C[C@H](Nc2ccc(F)cc2)c2cc(F)ccc2N1C(=O)c1ccccc1 ; criterion: pEC50 no lower than 6. Met?
stdout: class 0

stdin: For this molecule, is measured pEC50 6 or higher? C[C@@H]1C[C@H](Nc2ccc(F)cc2)c2cc(F)ccc2N1C(=O)c1ccccc1F
stdout: class 0

====

Task for the reader: assign each of the following molecules its reported Fold induction.
- tgt: Ecdysone receptor (Aedes aegypti)
- protocol text: Fold induction of ecdysone-dependent transactivation in mammalian cell line expressing Aedes aegypti ecdysone receptor at 33 uM
- Format: functional
The answer should be a number; do not append a unit.

stdin: Report measured Fold induction on Ecdysone receptor (Aedes aegypti); entry: COc1cccc(C(=O)N2c3ccc(F)cc3[C@@H](Nc3ccc(F)cc3)C[C@H]2C)c1
stdout: 119

stdin: Determine reported Fold induction for COc1ccccc1C(=O)N1c2ccc(C)cc2[C@@H](Nc2ccc(C)cc2)C[C@H]1C ; test system: Ecdysone receptor (Aedes aegypti).
stdout: 0

stdin: Enter recorded Fold induction with Ecdysone receptor (Aedes aegypti) for Cc1ccc(N[C@H]2C[C@@H](C)N(C(=O)c3ccc(C(F)(F)F)cc3)c3ccc(C)cc32)cc1 here.
stdout: 69

stdin: Report measured Fold induction on Ecdysone receptor (Aedes aegypti); entry: COc1cccc(C(=O)N2c3ccccc3[C@@H](Nc3ccccc3)C[C@H]2C)c1
stdout: 9

stdin: Check Ecdysone receptor (Aedes aegypti) data and give Fold induction for COc1cccc(C(=O)N2c3ccc(C)cc3[C@@H](Nc3ccc(C)cc3)C[C@H]2C)c1 .
stdout: 3

stdin: // fetch Fold induction; item: Cc1ccc(C(=O)N2c3ccc(F)cc3[C@@H](Nc3ccc(F)cc3)C[C@H]2C)cc1 ; system: Ecdysone receptor (Aedes aegypti)
stdout: 91

stdin: State Fold induction (Ecdysone receptor (Aedes aegypti)) of Cc1ccc(C(=O)N2c3ccccc3[C@@H](Nc3ccccc3)C[C@H]2C)cc1 .
stdout: 64

stdin: Please tell me the measured Fold induction for Cc1ccc(N[C@H]2C[C@@H](C)N(C(=O)c3ccccc3C)c3ccc(C)cc32)cc1 ; system: Ecdysone receptor (Aedes aegypti).
stdout: 19

stdin: Write down the reported Fold induction (system: Ecdysone receptor (Aedes aegypti)) of C[C@@H]1C[C@H](Nc2ccc(F)cc2)c2cc(F)ccc2N1C(=O)c1ccc(Cl)cc1
stdout: 212

====

- tgt: Ecdysone receptor (Aedes aegypti)
- Sequence (whole entry): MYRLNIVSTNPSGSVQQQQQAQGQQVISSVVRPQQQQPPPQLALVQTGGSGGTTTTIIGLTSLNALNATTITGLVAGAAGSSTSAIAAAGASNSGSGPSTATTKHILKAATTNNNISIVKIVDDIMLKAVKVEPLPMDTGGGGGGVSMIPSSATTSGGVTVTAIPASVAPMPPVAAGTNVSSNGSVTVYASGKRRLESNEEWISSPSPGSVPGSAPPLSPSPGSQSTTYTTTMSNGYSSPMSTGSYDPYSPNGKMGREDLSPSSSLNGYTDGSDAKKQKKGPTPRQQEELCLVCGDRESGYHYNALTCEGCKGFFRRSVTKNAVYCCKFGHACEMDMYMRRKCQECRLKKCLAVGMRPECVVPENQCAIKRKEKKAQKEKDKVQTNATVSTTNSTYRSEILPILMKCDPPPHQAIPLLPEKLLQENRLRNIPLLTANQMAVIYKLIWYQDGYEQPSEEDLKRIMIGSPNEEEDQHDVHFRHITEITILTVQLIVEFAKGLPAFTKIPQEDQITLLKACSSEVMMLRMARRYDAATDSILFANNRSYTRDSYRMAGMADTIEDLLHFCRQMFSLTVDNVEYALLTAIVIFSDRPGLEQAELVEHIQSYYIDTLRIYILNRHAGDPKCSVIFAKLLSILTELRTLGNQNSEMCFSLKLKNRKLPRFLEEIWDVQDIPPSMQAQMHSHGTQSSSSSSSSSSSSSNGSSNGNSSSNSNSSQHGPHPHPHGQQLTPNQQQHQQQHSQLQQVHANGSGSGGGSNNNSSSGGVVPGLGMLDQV
- protocol text: Fold induction of ecdysone-dependent transactivation in mammalian cell line expressing Aedes aegypti ecdysone receptor at 33 uM
- Format: functional
Please enter class 1 where Fold induction is greater than or equal to 60, and class 0 where it is lower.

stdin: Determine whether this compound has Fold induction no lower than 60: C[C@@H]1C[C@H](Nc2ccccc2)c2ccccc2N1C(=O)c1ccc(C(F)(F)F)cc1
stdout: class 1

stdin: Is the recorded value of Fold induction equal to or greater than 60 for this compound? C[C@@H]1C[C@H](Nc2ccc(F)cc2)c2cc(F)ccc2N1C(=O)c1ccccc1F
stdout: class 1

stdin: Assess whether reported Fold induction for Cc1ccc(N[C@H]2C[C@@H](C)N(C(=O)c3cccc(C(F)(F)F)c3)c3ccc(C)cc32)cc1 sits at 60 or higher.
stdout: class 0

stdin: Hi team, for C[C@@H]1C[C@H](Nc2ccc(F)cc2)c2cc(F)ccc2N1C(=O)c1ccc(C(F)(F)F)cc1 , is the recorded Fold induction at or above 60?
stdout: class 1

stdin: Would you say C[C@@H]1C[C@H](Nc2ccccc2)c2ccccc2N1C(=O)c1ccccc1 shows Fold induction at minimum 60?
stdout: class 0

stdin: Decide: is the reported value of Fold induction for C[C@@H]1C[C@H](Nc2ccccc2)c2ccccc2N1C(=O)c1cccc(F)c1 equal to or greater than 60?
stdout: class 1

stdin: Reported Fold induction at or above 60? C[C@@H]1C[C@H](Nc2ccc(F)cc2)c2cc(F)ccc2N1C(=O)c1ccccc1
stdout: class 1

stdin: Is reported Fold induction greater than or equal to 60 here: Cc1ccc(N[C@H]2C[C@@H](C)N(C(=O)c3ccccc3)c3ccc(C)cc32)cc1
stdout: class 0

stdin: Does the reported Fold induction for Cc1ccc(N[C@H]2C[C@@H](C)N(C(=O)c3ccc(Cl)cc3)c3ccc(C)cc32)cc1 fall at or above the 60 mark?
stdout: class 0

stdin: Is Fold induction at least 60? Consider COc1ccc(C(=O)N2c3ccc(F)cc3[C@@H](Nc3ccc(F)cc3)C[C@H]2C)cc1
stdout: class 1

stdin: Reported Fold induction reaches at least 60 for C[C@@H]1C[C@H](Nc2ccc(F)cc2)c2cc(F)ccc2N1C(=O)c1ccccc1C(F)(F)F ?
stdout: class 1

stdin: In plain terms: is recorded Fold induction at least 60 for Cc1ccc(N[C@H]2C[C@@H](C)N(C(=O)c3cccc(F)c3)c3ccc(C)cc32)cc1 ?
stdout: class 1

stdin: Is the recorded value of Fold induction equal to or greater than 60 for this compound? C[C@@H]1C[C@H](Nc2ccccc2)c2ccccc2N1C(=O)c1ccc(Cl)cc1
stdout: class 1

stdin: Textbook exercise: given the entry Cc1ccccc1C(=O)N1c2ccc(F)cc2[C@@H](Nc2ccc(F)cc2)C[C@H]1C , state whether its Fold induction is greater than or equal to 60.
stdout: class 1

stdin: Please indicate if the recorded Fold induction for C[C@@H]1C[C@H](Nc2ccc(F)cc2)c2cc(F)ccc2N1C(=O)c1cccc(C(F)(F)F)c1 meets or exceeds 60.
stdout: class 1

stdin: Is Fold induction at least 60? Consider Cc1ccc(N[C@H]2C[C@@H](C)N(C(=O)c3cccc(C)c3)c3ccc(C)cc32)cc1
stdout: class 0

stdin: Record Cc1ccc(N[C@H]2C[C@@H](C)N(C(=O)c3ccc(C)cc3)c3ccc(C)cc32)cc1 ; criterion: Fold induction no lower than 60. Met?
stdout: class 1

stdin: Form field: Fold induction at least 60? Entry: Cc1ccc(N[C@H]2C[C@@H](C)N(C(=O)c3ccccc3C(F)(F)F)c3ccc(C)cc32)cc1
stdout: class 0

stdin: Has Cc1ccc(N[C@H]2C[C@@H](C)N(C(=O)c3ccccc3F)c3ccc(C)cc32)cc1 a recorded Fold induction greater than or equal to 60?
stdout: class 0

stdin: Record C[C@@H]1C[C@H](Nc2ccc(F)cc2)c2cc(F)ccc2N1C(=O)c1cccc(F)c1 ; criterion: Fold induction no lower than 60. Met?
stdout: class 1

stdin: Answer whether Fold induction of COc1ccccc1C(=O)N1c2ccc(F)cc2[C@@H](Nc2ccc(F)cc2)C[C@H]1C is greater than or equal to 60.
stdout: class 0

stdin: Answer whether Fold induction of C[C@@H]1C[C@H](Nc2ccccc2)c2ccccc2N1C(=O)c1ccccc1C(F)(F)F is greater than or equal to 60.
stdout: class 0

stdin: Does COc1ccc(C(=O)N2c3ccccc3[C@@H](Nc3ccccc3)C[C@H]2C)cc1 have a reported Fold induction of at least 60?
stdout: class 1

stdin: Could you tell me if the measured Fold induction of COc1ccc(C(=O)N2c3ccc(C)cc3[C@@H](Nc3ccc(C)cc3)C[C@H]2C)cc1 reaches 60 or more?
stdout: class 0

stdin: Decide: is the reported value of Fold induction for Cc1cccc(C(=O)N2c3ccc(F)cc3[C@@H](Nc3ccc(F)cc3)C[C@H]2C)c1 equal to or greater than 60?
stdout: class 1

stdin: Quick check, Fold induction >= 60? C[C@@H]1C[C@H](Nc2ccccc2)c2ccccc2N1C(=O)c1cccc(C(F)(F)F)c1
stdout: class 0
